Recorded values, source a melting point compilation (Tetko et al.; mined from patent text by program, amines drawn as free bases though some values may be those of a salt).

We begin with a simple list: items and their reported melting point.
MEASURED METRIC: melting point

COMPOUND: CC(C)C[C@@H](C(=O)O)N(C)C(=O)OCc1ccccc1
RESULT: 69 to 71 °C

COMPOUND: O=C(O)C1=C(S(=O)(=O)c2ccccc2)CC2CC(=O)C12 (stereo not given)
RESULT: 205 to 207 °C

COMPOUND: Nc1nc(N)nc(N2CCOCC2)n1
RESULT: 248 to 250 °C

COMPOUND: Cc1cc(C)cc(Sc2c(CN3CCOCC3)c(C)[nH]c(=O)c2I)c1
RESULT: 230 °C

COMPOUND: CN(C(=S)N[C@@H](Cc1ccc(NC(=O)c2c(Cl)cncc2Cl)cc1)C(=O)O)c1ccccc1C(=O)NCC1CCCCC1
RESULT: 175 °C

COMPOUND: CNC(=O)ON=C1OCCSC1(C)C
RESULT: 67 to 68 °C

COMPOUND: Oc1cc(O)c(C23CC4CC(CC(C4)C2)C3)cc1C12CC3CC(CC(C3)C1)C2
RESULT: 146 °C

COMPOUND: C#CCCCCCCCCC(c1ccc(Cl)cc1)C1(S(=O)(=O)c2ccc(OC)cc2)SC(=O)NC1=O (stereo not given)
RESULT: 114 to 121 °C

COMPOUND: Cc1nc(C)c(Cl)c(NCc2ccc(Oc3ccc4ncc([N+](=O)[O-])n4n3)c(OCC3CC3)c2)n1
RESULT: 178 to 180 °C

COMPOUND: CCCOC(=O)C1=NN(c2ccccc2)C(C(=O)OCCC)=NN1c1ccccc1
RESULT: 82.5 to 83 °C

---

Non-standard residues stand in square brackets, D forms with d. Residues, ends and D or L forms follow the SMILES beside them. ξ: configuration not given here. *: point of attachment. Boc = CC(C)(C)OC(=O)*; ξA = CC(N)C(=O)O
MEASURED METRIC: melting point

COMPOUND: CN(Cc1ccc(NC(=O)C2=Cc3cc(-c4ccc(OCc5ccc(Cl)s5)cc4)ccc3S(=O)(=O)CC2)cc1)C1CCOCC1
MEASURED METRIC: melting point
RESULT: 207 to 210 °C

COMPOUND: Cc1nc(NC(=O)Cc2ccsc2)c(Br)c(C)c1Br
MEASURED METRIC: melting point
RESULT: 157 °C

COMPOUND: COC(=O)CNC(=O)C(C)NC(=O)CNC(=O)OC(C)(C)C (stereo not drawn) (Boc-Gly-[ξA]-Gly-OMe)
MEASURED METRIC: melting point
RESULT: 98 to 100 °C

COMPOUND: CNC(=O)COC1C(O)C(CO)OC(Oc2ccc(N)cc2)C1O (centres undefined)
MEASURED METRIC: melting point
RESULT: 239 °C

COMPOUND: COC(=O)c1cc(-c2ccc(Cl)cc2)n(-c2ccc(S(N)(=O)=O)cc2)n1
MEASURED METRIC: melting point
RESULT: 186 °C

COMPOUND: CC12CCC(C(=Cc3ccc(CC(SSCC(=O)O)C(=O)O)cc3)C1=O)C2(C)C (centres undefined)
MEASURED METRIC: melting point
RESULT: 116 °C

COMPOUND: CC(C)CC(C)(C(=O)NC1CCCCCCCCCCNC1=O)c1cccc(Cl)c1S (centres undefined)
MEASURED METRIC: melting point
RESULT: 143 to 148 °C

COMPOUND: COCOc1ccc(C=CC(=O)c2c(OCOC)cc(OCOC)c(CC=C(C)C)c2O)cc1OC
MEASURED METRIC: melting point
RESULT: 62.5 to 63.5 °C

COMPOUND: CCOC(=O)c1c(C=O)c2ccc3sc4ccccc4c3c2n1C
MEASURED METRIC: melting point
RESULT: 145 to 147 °C

COMPOUND: CON(Cc1ccc(NC(C)=O)cc1)C(=O)C1=C(O)C(=O)N(C)C1
MEASURED METRIC: melting point
RESULT: 110 °C

COMPOUND: CCCCC1=C(/C=C/C(=O)Oc2ccc([N+](=O)[O-])cc2)CCc2cc(OC)ccc21
MEASURED METRIC: melting point
RESULT: 94 to 95 °C

COMPOUND: Cc1nsc(SCC2=C(C(=O)OC(c3ccccc3)c3ccccc3)N3C(=O)C(N)(N)C3SC2)n1 (centres undefined)
MEASURED METRIC: melting point
RESULT: 157 to 159 °C

COMPOUND: CCOc1ncc(S(=O)(=O)N2CCN(CC)CC2)cc1C(=O)Nc1c(C(N)=O)nn(CCOC)c1CC
MEASURED METRIC: melting point
RESULT: 156 °C

COMPOUND: CCNC(=O)NCCNc1nc(-c2ccc(F)cc2C)c2ccc(=O)n(-c3c(F)cccc3F)c2n1
MEASURED METRIC: melting point
RESULT: 130 to 133 °C

COMPOUND: COC(=O)c1ccc(C(=O)Nc2ccc3c(c2)C(C)(C)CCC3(C)C)cc1
MEASURED METRIC: melting point
RESULT: 211 °C

COMPOUND: O=C(O)c1cc2cc(O)ccc2o1
MEASURED METRIC: melting point
RESULT: 223 to 228 °C

COMPOUND: CCCCOc1ccc2cc(C(C)NC(N)=O)ccc2c1 (centres undefined)
MEASURED METRIC: melting point
RESULT: 135 to 137 °C

COMPOUND: N#CCc1cc(Br)cc(Cc2nc3c(F)c(F)cc(F)c3s2)c1
MEASURED METRIC: melting point
RESULT: 119 to 124 °C

COMPOUND: CCCNC1=CC(=O)C(NCCC)=C2C1=Nc1ccccc1S2(=O)=O
MEASURED METRIC: melting point
RESULT: 174 to 176 °C

---

We begin with a simple list: items and their reported melting point.

COMPOUND: c1ccc(-c2cn(C3CCCN4CCCCC34)nn2)cc1 (stereo not given)
SCALE UNIT: °C
melting point: 150
//
COMPOUND: O=C1c2ccc(Nc3ccc(F)cc3F)cc2CCc2c(OC[C@H](O)CO)cccc21
SCALE UNIT: °C
melting point: 125
//
COMPOUND: O=C1OCc2cc(CO)ccc21
SCALE UNIT: °C
melting point: 126
//
COMPOUND: O=c1cnn(-c2ccc(C(c3ccc(Cl)cc3)c3cc(-c4ccccc4)cs3)c(Cl)c2)c(=O)[nH]1 (stereo not given)
SCALE UNIT: °C
melting point: 90

---

COMPOUND: CC(C)(C)c1cnc(-c2nn(-c3ccc(F)cc3F)c3c2C2CCC3C2)o1 (stereo unspecified)
melting point: 58 to 60 °C
--
COMPOUND: CCOC(=O)c1nn(C)cc1C(F)F
melting point: 30 to 31 °C
--
COMPOUND: CC(=O)Nc1ccccn1
melting point: 155 to 156 °C
--
COMPOUND: CC(=O)NCCCC(=O)c1ccc(Cl)cc1C(CC(=O)O)c1ccccc1 (stereo unspecified)
melting point: 114 to 116 °C
--
COMPOUND: CCn1ncc2c(NCC3CCCCC3)c3cc(Br)ccc3nc21
melting point: 158 to 160 °C
--
COMPOUND: Cc1cc2c(c(C)c1C)C(c1ccc(C(C)C)cc1)CO2 (stereo unspecified)
melting point: 70 to 71 °C
--
COMPOUND: CCOC(=O)Nc1ccccc1C(=O)OCC
melting point: < 40 °C
--
COMPOUND: CC1CN(c2c(F)cc3c(=O)c(C(=O)O)cn(C)c3c2C(F)(F)F)CCN1c1ncccn1 (stereo unspecified)
melting point: 283 to 284 °C
--
COMPOUND: COc1ccc2c(CBr)c(Br)ccc2c1C(F)(F)F
melting point: 142 to 143 °C
--
COMPOUND: COc1cccc2cc(C(=O)OCC(C)C)[nH]c12
melting point: 100 to 101 °C
--
COMPOUND: N#CC1CN1C(=O)c1ccc(S(N)(=O)=O)cc1 (stereo unspecified)
melting point: 145 to 146 °C
--
COMPOUND: CCOC(=O)CNc1ccc2oc3c(OC)ccc(C(=O)Nc4c(Cl)cncc4Cl)c3c2c1
melting point: > 270 °C
--
COMPOUND: FC(F)(F)c1cc(C(F)(F)F)n(-c2ccc(Nc3noc4ccccc34)cc2)n1
melting point: 209 to 210 °C
--
COMPOUND: Nc1nc(N)nc(-c2ccc(C(O)c3ccccc3)cc2)n1 (racemic)
melting point: 214 to 216 °C
--
COMPOUND: CS(=O)(=O)CCCOc1ccc(/C=C/C(=O)O)c(Oc2ncc(C(F)(F)F)cc2Cl)c1
melting point: 202 to 203 °C
--
COMPOUND: CCCCc1nc2c(N)nc3ccccc3c2n1CCOc1ccccc1
melting point: 168 to 170 °C
--
COMPOUND: C=CCN(C)C/C=C/COc1cc2c(cc1F)c(-c1ccc(Br)cc1)nn2C
melting point: 135 to 137 °C
--
COMPOUND: CCN1c2ncccc2C(N(C)C)=Nc2c(C)cc(C)nc21
melting point: 150 to 152 °C
--
COMPOUND: COCOc1ccc(-c2ncc3ccc(-c4csc(CN5CCN(C)CC5)c4)nc3n2)cc1
melting point: > 268 °C
--
COMPOUND: COc1ccc(-c2c[nH]cc2C#N)cc1OC
melting point: 212 to 214 °C
--
COMPOUND: CCCCCCCCCCCCCCCCCCC(CC1(C)OCCO1)C(=O)OCC (stereo unspecified)
melting point: 33 to 34 °C
